# protocol-notes: in vitro
# reported-conditions: dog
Catalogue of CC50 values
Answer format: numeric, µM implied, no suffix.

The examples below pair each entry with its known result.
INSERT INTO results (compound, parameter, readout_unit, val) VALUES
  ('NC(=O)c1ncn([C@@H]2O[C@H](CO)[C@@H](O)[C@H]2O)n1 [Ri, Ribavirin, reference compound]', 'CC50', 'µM', 532),
  ('COC1=C(c2ccc(Cl)cc2)C(=O)OC1(C)C(O)c1ccc(N2CCOCC2)cc1 (stereo not shown) [Compound 48]', 'CC50', 'µM', 130),
  ('COC1(C)OC(=O)C(c2ccc(Cl)cc2)=C1N1CCOCC1 (stereo not shown) [Compound 58]', 'CC50', 'µM', 209);

Please turn your attention to the following entry.
What does the record list as CC50 for COC1=C(c2ccc(Br)cc2)C(=O)OC1(C)OC (stereo not shown) [Compound 25] ?
266

###

# protocol-notes: in vitro
# reported-conditions: dog
Catalogue of CC50 values
Answer format: numeric, µM implied, no suffix.

The examples below pair each entry with its known result.
INSERT INTO results (compound, val) VALUES
  ('COC1=C(c2ccc(Cl)cc2)C(=O)OC1(C)OC (stereo not drawn)', 98.3),
  ('COC1=C(c2ccc(Cl)cc2)C(=O)OC1(C)C(O)c1ccc(C)cc1 (stereo not drawn)', 75.2),
  ('COC1=C(c2ccccc2)C(=O)OC1(C)OC (stereo not drawn)', 168);

What does the record list as CC50 for COC1=C(c2ccc(F)c(F)c2)C(=O)OC1(C)OC (stereo not drawn) ?
109

What does the record list as CC50 for COC1=C(c2ccc(C)cc2)C(=O)OC1(C)OC (stereo not drawn) ?
184

What does the record list as CC50 for COc1ccc(C2=C(N3CCOCC3)C(C)(OC)OC2=O)cc1 (stereo not drawn) ?
536

What does the record list as CC50 for COC1(C)OC(=O)C(c2ccc(F)cc2)=C1N1CCOCC1 (stereo not drawn) ?
776

What does the record list as CC50 for COC1=C(c2ccc(Cl)cc2)C(=O)OC1(C)C(O)c1ccccn1 (stereo not drawn) ?
155

###

# protocol-notes: in vitro
# reported-conditions: dog
parameter: CC50 (µM)
Answer format: numeric, µM implied, no suffix.

The examples below pair each entry with its known result.
INSERT INTO measurements (compound, val) VALUES
  ('COC1=C(c2cccc(F)c2)C(=O)OC1(C)OC (stereo not drawn)', 19.8),
  ('COC1(C)OC(=O)C(c2cccc(F)c2)=C1N1CCOCC1 (stereo not drawn)', 147);

What does the record list as CC50 for COC1=C(c2ccccc2F)C(=O)OC1(C)OC (stereo not drawn) ?
204

These entries and their values trace back to paper PMC6705239.
